Where these numbers come from: a melting point compilation (Tetko et al.; mined from patent text by program, amines drawn as free bases though some values may be those of a salt)

resultType: melting point

Reference set, count: 4
# molecule, resultType, observedValue
rows = [
    ("O=C(Nc1nnn[nH]1)c1csc(-c2ncccc2O)n1", "melting point", "> 300 °C"),
    ("Cn1nc(-c2c(F)cccc2Cl)nc1-c1ccc(Cl)nc1", "melting point", "118 to 120 °C"),
    ("COC(=O)CCCCCCNC(=O)C(CSC(C)=O)Cc1ccccc1 (stereo not given)", "melting point", "84 to 85 °C"),
    ("CC(=O)Oc1cc(C)ccc1C1CCN(CCCCNC(=O)c2ccc(NC(=O)c3ccc(Cl)cc3)cc2)CC1", "melting point", "210 °C"),
]

Query block: Record request: melting point value, item CN1CCC(=O)N(c2ccccc2Cl)C1=O
Result block: 120 to 123 °C

Query block: Record request: melting point value, item CCCCCCCCCCCCCCCCCCN(C)[Si](C)(C)C
Result block: 35 to 40 °C

Query block: Record request: melting point value, item COc1ccc(C(=O)NCc2ccc(Br)cc2F)c(OCC(=O)O)c1
Result block: 203 to 204 °C

Query block: Record request: melting point value, item N#CCCc1cc(N2C(=O)C3=C(CCCC3)C2=O)ccc1Cl
Result block: 87 to 97 °C

Query block: Record request: melting point value, item O=C1C(=O)c2ccccc2C2=C1SCC1(CCN(C(=O)c3cccc([N+](=O)[O-])c3)CC1)O2
Result block: 160 to 162 °C

Query block: Record request: melting point value, item O=C(CNC(=O)OCc1ccccc1)Nc1nnc(SCc2ccccc2)s1
Result block: 200 to 202 °C
